meta.source: patent US12000819B2

Catalogue of molecules with associated Correction coefficient α
Test: Concentration of gas dissolved in cell culture liquid or pure water after bubbling, measured by gas chromatography
Assay type: physicochemical
Conditions: Table 2; repeated at a later date; ratio of average gas concentrations in cell culture liquid and pure water
I only need the number, thanks.

Known Correction coefficient α results, listed for orientation:
{"columns": ["Input Smiles", "Result Type", "Data Value"],
 "data": [
  ["FC(F)Cl", "Correction coefficient α", 1.33],
  ["FCC(F)(F)F", "Correction coefficient α", 1.26],
  ["FCF", "Correction coefficient α", 1.36]
]}

We now examine a further molecule.
Look up Correction coefficient α: C=C(F)C(F)(F)F
1.25
